Attribution: ChEMBL document CHEMBL4706559

Measured IC50, listed per entry for reference.
TESTED_SYSTEM: Human immunodeficiency virus type 1 reverse transcriptase (Human immunodeficiency virus 1)
ASSAY_NAME: Inhibition of RNA-dependent DNA polymerase activity of wild type recombinant HIV-1 His-tagged p66/p51 reverse transcriptase assessed as inhibition of [3H]dTTP incorporation using poly(rA)/oligo(dT) as templates incubated for 15 mins by MicroBeta scintillation counting method

Examples from the recorded data:
*Q* Consider the compound Cc1cc(C)cc(S(=O)(=O)c2c(C(=O)NCc3ccccc3O)[nH]c3ccc(Cl)cc23)c1 and give its measured IC50.
*A* 83 nM

*Q* Given Cc1cc(C)cc(S(=O)(=O)c2c(C(=O)NCc3cccc(O)c3)[nH]c3ccc(Cl)cc23)c1 , state its recorded IC50.
*A* 68 nM

Next:
*Q* Report IC50 for Cc1cc(C)cc(S(=O)(=O)c2c(C(=O)Nc3ccc(O)cc3)[nH]c3ccc(Cl)cc23)c1 please.
*A* 69 nM

---

ASSAY_NAME: Cytotoxicity against human MT-4 cells assessed as reduction in cell viability by MTT assay
Assay type: cell-based, MT4
In this section, each of the molecules is paired with its reported CC50.

Illustrative cases are given below, each with its answer.
*Q* Entry Cc1cc(C)cc(S(=O)(=O)c2c(C(=O)NC(C)c3ccccc3O)[nH]c3ccc(Cl)cc23)c1 (stereo not drawn) has what CC50?
*A* 21.8 µM

*Q* Reported CC50 for Cc1cc(C)cc(S(=O)(=O)c2c(C(=O)NC(C)c3cccc(O)c3)[nH]c3ccc(Cl)cc23)c1 (stereo not drawn) : what is it?
*A* 16 µM

*Q* # query: CC50 of entry O=C1Nc2ccc(Cl)cc2[C@@](C#CC2CC2)(C(F)(F)F)O1 [EFAVIRENZ]
*A* > 15.8 µM

*Q* Return reported CC50; argument: Cc1cc(C)cc(S(=O)(=O)c2c(C(=O)Nc3ccc(O)cc3)[nH]c3ccc(Cl)cc23)c1
*A* 18.1 µM

*Q* # get_value(readout='CC50', item= Cc1cc(C)cc(S(=O)(=O)c2c(C(=O)NCc3ccc(O)c(O)c3)[nH]c3ccc(Cl)cc23)c1 )
*A* 18.3 µM

*Q* Would you mind telling me what CC50 value was observed for Cc1cc(C)cc(S(=O)(=O)c2c(C(=O)NCc3cccc(O)c3)[nH]c3ccc(Cl)cc23)c1 ?
*A* 27 µM

*Q* Recorded CC50 of Cc1cc(C)cc(S(=O)(=O)c2c(C(=O)Nc3cccc(O)c3)[nH]c3ccc(Cl)cc23)c1 , please.
*A* 24.6 µM

Others:
*Q* Can you share its CC50? I mean this molecule: Cc1cc(C)cc(S(=O)(=O)c2c(C(=O)NC(C)C(=O)NCc3ccccc3O)[nH]c3ccc(Cl)cc23)c1 (stereo not drawn)
*A* 14.4 µM

---

Tested on: Human immunodeficiency virus 1
ASSAY_NAME: Antiviral activity against HIV-1 NL4-3 infected in human MT-4 cells assessed as virus induced cytopathic effect by MTT assay
Type: functional, organism-based
TEST_SETTINGS: Human immunodeficiency virus 1, NL4-3, MT4
QUANTITY_MEASURED: EC50

Here's what some known entries look like.
*Q* Human immunodeficiency virus 1 / EC50 / Cc1cc(C)cc(S(=O)(=O)c2c(C(=O)NC(C)c3cccc(O)c3)[nH]c3ccc(Cl)cc23)c1 (stereo not drawn) : value?
*A* < 0.7 nM

*Q* Provide value of EC50 for this record tested with Human immunodeficiency virus 1: Cc1cc(C)cc(S(=O)(=O)c2c(C(=O)Nc3cccc(O)c3)[nH]c3ccc(Cl)cc23)c1
*A* < 0.7 nM

*Q* Fill in the recorded EC50 for this molecule, with Human immunodeficiency virus 1 as test system: Cc1cc(C)cc(S(=O)(=O)c2c(C(=O)NCC(=O)NCc3cccc(O)c3)[nH]c3ccc(Cl)cc23)c1
*A* < 0.6 nM

Others:
*Q* Any idea what EC50 came out for Cc1cc(C)cc(S(=O)(=O)c2c(C(=O)NCc3cc(O)ncn3)[nH]c3ccc(Cl)cc23)c1 on Human immunodeficiency virus 1?
*A* < 0.7 nM

*Q* Identify the measured EC50 of Cc1cc(C)cc(S(=O)(=O)c2c(C(=O)NCCc3ccc(O)cc3)[nH]c3ccc(Cl)cc23)c1 for Human immunodeficiency virus 1.
*A* < 0.7 nM

---

ASSAY_NAME: Inhibition of RNA-dependent DNA polymerase activity of recombinant HIV-1 p66/p51 reverse transcriptase Y188L mutant assessed as inhibition of [3H]dTTP incorporation using poly(rA)/oligo(dT) as templates incubated for 15 mins by MicroBeta scintillation counting method
Set-up: species or system Human immunodeficiency virus 1
QUANTITY_MEASURED: pIC50
pIC50 here is simply -log10 of the concentration when that concentration is written in mol/L.

*Q* So what does the record say about pIC50 for Cc1cc(C)cc(S(=O)(=O)c2c(C(=O)NCc3ccccc3N)[nH]c3ccc(Cl)cc23)c1 ?
*A* 7.24

Continuing:
*Q* Give the measured pIC50 of Cc1cc(C)cc(S(=O)(=O)c2c(C(=O)NCc3ccccc3O)[nH]c3ccc(Cl)cc23)c1 .
*A* 7.21

*Q* Which pIC50 value is on record for Cc1cc(C)cc(S(=O)(=O)c2c(C(=O)NCc3ccc(O)cc3)[nH]c3ccc(Cl)cc23)c1 ?
*A* 7.30

*Q* Endpoint output: pIC50 of Cc1cc(C)cc(S(=O)(=O)c2c(C(=O)NC(C)C(=O)NCc3cccc(O)c3)[nH]c3ccc(Cl)cc23)c1 (stereo not drawn) . Value?
*A* 7.47

*Q* # lookup: pIC50 of Cc1cc(C#N)cc(C)c1Oc1nc(Nc2ccc(C#N)cc2)nc(N)c1Br
*A* 6.79

*Q* Recorded pIC50 for Cc1cc(C)cc(S(=O)(=O)c2c(C(=O)NCc3ccc(CO)cc3)[nH]c3ccc(Cl)cc23)c1 , please?
*A* 6.75

*Q* Would you kindly share the measured pIC50 for Cc1cc(C)cc(S(=O)(=O)c2c(C(=O)Nc3ccc(O)cc3)[nH]c3ccc(Cl)cc23)c1 ?
*A* 7.09

*Q* Looking for the measured pIC50 of Cc1cc(C)cc(S(=O)(=O)c2c(C(=O)NCc3cccc(O)c3)[nH]c3ccc(Cl)cc23)c1 , can you help?
*A* 7.48

---

Here the recorded CC50 is given for each entry.
ASSAY_NAME: Cytotoxicity against human MT-4 cells assessed as reduction in cell viability by MTT assay
Format: cell-based, MT4
Reply with just the number (in µM).

*Q* Consider the compound Cc1cc(C)cc(S(=O)(=O)c2c(C(=O)Nc3ccccc3O)[nH]c3ccc(Cl)cc23)c1 and give its measured CC50.
*A* 19.7

*Q* Look up CC50: Cc1cc(C)cc(S(=O)(=O)c2c(C(=O)NC(C)C(=O)NCc3cccc(O)c3)[nH]c3ccc(Cl)cc23)c1 (stereo not drawn)
*A* 23.8

*Q* Could you tell me which CC50 is on file for Cc1cc(C)cc(S(=O)(=O)c2c(C(=O)NCc3ccccc3O)[nH]c3ccc(Cl)cc23)c1 ?
*A* 23.8

Continuing:
*Q* Can you share its CC50? I mean this compound: Cc1cc(C)cc(S(=O)(=O)c2c(C(=O)Nc3ccc(CO)cc3)[nH]c3ccc(Cl)cc23)c1
*A* 39.6

*Q* Give the measured CC50 of Cc1cc(C)cc(S(=O)(=O)c2c(C(=O)NCc3ccc(O)cc3)[nH]c3ccc(Cl)cc23)c1 .
*A* 6.25

---

Each item that follows carries a reported selectivity ratio.
ASSAY_NAME: Selectivity ratio of CC50 for human MT4 cells to EC50 for antiviral activity against HIV-1 NL4-3 infected in human MT4 cells
Format: toxicity, cell-based
TEST_SETTINGS: read-out: Ratio CC50/EC50

The examples below pair each entry with its known result.
*Q* GET /values?readout=selectivity ratio&item= Cc1cc(C)cc(S(=O)(=O)c2c(C(=O)NCc3cccc(O)c3)[nH]c3ccccc23)c1
*A* > 3640

*Q* Which measured selectivity ratio value corresponds to Cc1cc(C)cc(S(=O)(=O)c2c(C(=O)NC(C)c3ccccc3O)[nH]c3ccc(Cl)cc23)c1 (stereo unspecified) ?
*A* 31100

*Q* Which selectivity ratio value belongs to Cc1cc(C)cc(S(=O)(=O)c2c(C(=O)NCc3ccc(O)c(O)c3)[nH]c3ccc(Cl)cc23)c1 ?
*A* > 26200

*Q* Need selectivity ratio of Cc1cc(C)cc(S(=O)(=O)c2c(C(=O)NC(C)C(=O)NCc3cccc(O)c3)[nH]c3ccc(Cl)cc23)c1 (stereo unspecified) , thanks.
*A* > 39600

*Q* Param item = Cc1cc(C)cc(S(=O)(=O)c2c(C(=O)NCc3ccc(CO)cc3)[nH]c3ccc(Cl)cc23)c1 ; retrieve measured selectivity ratio.
*A* > 44400

Next, consider the following molecule.
*Q* What does the data say about its selectivity ratio? Entry: Cc1cc(C)cc(S(=O)(=O)c2c(C(=O)NCCc3ccccc3O)[nH]c3ccc(Cl)cc23)c1
*A* > 34000
